System: Plasmodium falciparum
Experiment: Inhibition of Plasmodium falciparum protein farnesyltransferase at 5 nM by scintillation proximity assay
Assay Readout: inhibition

Take a look at these entries with their results.
1) Cn1cc(S(=O)(=O)N(Cc2ccccc2F)C2Cc3cc(C#N)ccc3N(Cc3cncn3C)C2)cn1 (configuration not stated) = 62%
2) Cc1oncc1S(=O)(=O)N(CC(=O)NC(C)(C)C)C1Cc2cc(C#N)ccc2N(Cc2cncn2C)C1 (configuration not stated) = 0%
3) CC(C)NC(=O)N1CCC(CN(C2Cc3cc(C#N)ccc3N(Cc3cncn3C)C2)S(=O)(=O)c2ccccn2)CC1 (configuration not stated) = 38%
4) CN(C)CCN(C1Cc2cc(C#N)ccc2N(Cc2cncn2C)C1)S(=O)(=O)c1cn(C)cn1 (configuration not stated) = 15%
5) Cn1cncc1CN1CC(N(CCN2C(=O)c3ccccc3C2=O)S(=O)(=O)c2ccccn2)Cc2cc(C#N)ccc21 (configuration not stated) = 77%
6) Cc1noc(C)c1CN(C1Cc2cc(C#N)ccc2N(Cc2cncn2C)C1)S(=O)(=O)c1cn(C)cn1 (configuration not stated) = 98%
7) Cn1cncc1CN1CC(N(CC2CCN(C(=O)c3ccccc3)CC2)S(=O)(=O)c2ccccn2)Cc2cc(C#N)ccc21 (configuration not stated) = 20%
8) Cn1cnc(S(=O)(=O)N(Cc2ccc(-n3cncn3)cc2)C2Cc3cc(C#N)ccc3N(Cc3cncn3C)C2)c1 (configuration not stated) = 54%

*Q* Entry COC(=O)N1CCC(CN(C2Cc3cc(C#N)ccc3N(Cc3cncn3C)C2)S(=O)(=O)c2ccc(C(=O)O)o2)CC1 (configuration not stated) : reported inhibition = ?
*A* 49%

*Q* I would be grateful if you could share the reported inhibition for Cn1cnc(S(=O)(=O)N(CCc2ccccc2)C2Cc3cc(C#N)ccc3N(Cc3cncn3C)C2)c1 (configuration not stated) .
*A* 96%

*Q* Need inhibition of Cn1cncc1CN1CC(N(CCn2cccn2)S(=O)(=O)c2ccccn2)Cc2cc(C#N)ccc21 (configuration not stated) , thanks.
*A* 96%

----------
Reported inhibition values for a set of molecules
Tested on: Plasmodium falciparum
Test: Inhibition of Plasmodium falciparum protein farnesyltransferase at 0.5 nM by scintillation proximity assay
Give just the number in %; leave the unit off.

// solved cases for inhibition follow
1) C/C=C/C=C\C=C\CN(C1Cc2cc(C#N)ccc2N(Cc2cncn2C)C1)S(=O)(=O)c1ccccn1 (centres undefined) = 32
2) Cn1cnc(CN2CC(N(CCNC(=O)OC(C)(C)C)S(=O)(=O)c3cn(C)cn3)Cc3cc(-c4ccccc4)ccc32)c1 (centres undefined) = 18

*Q* GET /values?readout=inhibition&system=Plasmodium falciparum&item= Cn1cncc1CN1CC(N(CCc2ccc(F)cc2)S(=O)(=O)c2ccccn2)Cc2cc(C#N)ccc21 (centres undefined)
*A* 9

*Q* Please tell me: inhibition of Cc1onc(-c2ccccc2)c1CN(C1Cc2cc(C#N)ccc2N(Cc2cncn2C)C1)S(=O)(=O)c1ccccn1 (centres undefined) , system Plasmodium falciparum?
*A* 42

----------
System: Plasmodium falciparum
Assay: Inhibition of Plasmodium falciparum protein farnesyltransferase at 0.5 nM by scintillation proximity assay
Assay Readout: inhibition (%)
All answers are understood in %, so give the number only.

The examples below pair each entry with its known result.
1. Cn1cnc(S(=O)(=O)N(CCCN)C2Cc3cc(C#N)ccc3N(Cc3cncn3C)C2)c1 (stereo not drawn) = 5
2. Cn1cnc(S(=O)(=O)N(Cc2ccc(-n3cccn3)cc2)C2Cc3cc(C#N)ccc3N(Cc3cncn3C)C2)c1 (stereo not drawn) = 56
3. COC(=O)c1ccsc1S(=O)(=O)N(CC1CCN(C(=O)OC)CC1)C1Cc2cc(C#N)ccc2N(Cc2cncn2C)C1 (stereo not drawn) = 10
4. CN(C)CC(=O)N(Cc1ccccc1F)C1Cc2cc(C#N)ccc2N(Cc2cncn2C)C1 (stereo not drawn) = 0

*Q* Hi! What's the reported inhibition for Cn1cncc1CN1CC(N(CC(=O)NC(C)(C)C)S(=O)(=O)c2nccn2C)Cc2cc(C#N)ccc21 (stereo not drawn) on Plasmodium falciparum?
*A* 2

*Q* Notebook entry, Plasmodium falciparum assay: inhibition of Cn1cnc(S(=O)(=O)N(CCc2ccsc2)C2Cc3cc(C#N)ccc3N(Cc3cncn3C)C2)c1 (stereo not drawn) = ?
*A* 86

*Q* Missing value: inhibition, Plasmodium falciparum, entry Cn1cnc(CN2CC(N(CC(=O)NC(C)(C)C)S(=O)(=O)c3ccccn3)Cc3cc(-c4ccccc4)ccc32)c1 (stereo not drawn) . Fill in?
*A* 6

*Q* Give Plasmodium falciparum inhibition for COC(=O)N1CCC(CN(C2Cc3cc(C#N)ccc3N(Cc3cncn3C)C2)S(=O)(=O)c2ccccc2)CC1 (stereo not drawn)
*A* 43
